Where these numbers come from: PubChem BioAssay

assay: basal 3T3-L1 adipocyte mitochondrial potential changes, profiling panel, cell-based, JC-1 fluorescence, 3T3-L1 adipocytes, 24 h, 100 nL compound (AID 1168); settings: JC-1 mitochondrial fluorescence, higher = more signal, called active from +8 up or from −8 down; note: test concentration not given here
Threshold check on z-score: at or above -0.3 gives fulfilled, strictly below gives not fulfilled.

# compound, group.label
records = [
    ("Cc1cc2c(nc1C)CCCN2CC(O)CN1CCN(C)CC1 (stereo unspecified)", "not fulfilled"),
    ("C#C[C@@H](CC)O[Si](C#Cc1ccc(Oc2ccccc2)cc1)(C(C)C)C(C)C", "fulfilled"),
    ("CO[C@@H]1COC(=O)[C@H](C)NC(=O)[C@@H](C)COC(=O)CCC[C@H]1C", "not fulfilled"),
    ("COc1ccc([Si](C)(C)[C@@H]2[C@@H](CC(=O)N3CCC[C@H]3CO)O[C@]3(C(=O)N(Cc4cccc(N5CCC5=O)c4)c4ccccc43)[C@H]2C)cc1", "fulfilled"),
    ("CN(C)CCCNC(=O)[C@@H]1c2ccccc2C(=O)N(Cc2ccccc2)[C@H]1c1ccc(CO)cc1", "fulfilled"),
    ("COC(=O)[C@H]1COC(c2ccc(OCCCO)cc2)=N1", "fulfilled"),
    ("COC(=O)C1=C(C)[C@@H](O)[C@@H](C)[C@H](c2c(OC)c(OC)c(C)c(OC)c2OC)O1", "fulfilled"),
    ("CC[C@@H](c1ccccc1)n1c(=O)n2n(c1=O)[C@H]1[C@H](O)[C@@H]3O[C@@H]3C(=NOCC=C(C)CCC=C(C)C)[C@H]1CC2", "fulfilled"),
    ("O=C1C2=CC[C@H]3C(=O)N(Cc4ccc5c(c4)OCO5)C(=O)[C@H]3[C@H]2[C@H](O)[C@@H]2O[C@H]12", "fulfilled"),
    ("CC(C)(C)OC(=O)CC[C@]1(C(=O)NCc2ccccc2)N=C(c2ccc(OCCCO)cc2)O[C@H]1c1ccccc1", "not fulfilled"),
    ("COCCCNC(=O)[C@@]1(Sc2ccc(C)cc2)CC(=O)N(Cc2ccccc2)[C@@H]1c1ccc(CO)cc1I", "fulfilled"),
    ("COC(=O)CC=C[C@@H](C)[C@@H](C=NO[C@H](C)c1cn([C@@H]2COC[C@H]2O)nn1)OC", "not fulfilled"),
    ("C=C(CCCC)C(=O)CC[C@@H](OC(C)=O)c1cccc(OCCO)c1", "not fulfilled"),
    ("C=COC[C@H]1CN2[C@@H](CC[C@@H](C)[C@@H]2c2ccc(Br)cc2)C(=O)O1", "fulfilled"),
    ("CCN1C(=O)[C@H]2[C@H]3[C@H](O)[C@H](O)CC(=NOC[C@@H](C)[C@H](OCc4ccccc4)C(C)C)[C@@H]3CC[C@H]2C1=O", "not fulfilled"),
    ("COc1cccc([C@H]2Oc3ccc(OC)cc3C(=NOC(C)CN3CCCc4nc(C)c(C)cc43)[C@@H]2O)c1 (stereo partly specified)", "not fulfilled"),
    ("CCCNC(=O)[C@@H]1c2ccccc2C(=O)N(c2ccc(C)cn2)[C@H]1c1ccc(CO)cc1", "fulfilled"),
    ("O=C1NC(=O)C2C1C=CC(C(O)Cc1ccccc1)N2Nc1ccccn1 (stereo unspecified)", "fulfilled"),
    ("CC(=O)OC[C@H]1O[C@@H](ON=C(C)CCN2CCc3nc(-c4ccccc4)c(-c4ccccc4)cc3C2)[C@H](OC(C)=O)[C@@H](OC(C)=O)[C@@H]1OC(C)=O", "not fulfilled"),
    ("COC(=O)[C@H](C)NC(=O)CCC1CC(OC(=O)NCc2ccc3c(c2)OCO3)CC2(CCCC(COC(=O)NCCOc3ccccc3)O2)O1 (stereo partly specified)", "fulfilled"),
    ("COCCCNC(=O)[C@]1(CCC(=O)OC(C)(C)C)N=C(c2ccc(OCCCO)cc2)O[C@@H]1c1ccccc1N=[N+]=[N-]", "fulfilled"),
    ("O=C1C[C@@H](O)[C@@H](O)[C@@H]2[C@@H]3C(=O)N(c4ccc(F)cc4F)C(=O)[C@@H]3CC[C@@H]12", "not fulfilled"),
    ("COc1ccc(O[C@H]2C=C[C@@H](c3ccccc3)O[C@@H]2COC(=O)CCC(C)=NOC(C)CN2CCCCc3nc(C)c(C)cc32)cc1 (stereo partly specified)", "not fulfilled"),
    ("CN(C)CCCNC(=O)[C@@H]1c2ccccc2C(=O)N(Cc2cc(F)cc(C(F)(F)F)c2)[C@H]1c1ccc(CO)cc1", "not fulfilled"),
    ("CO[C@H]1COC(=O)CC=C[C@H](C)[C@@H](NS(=O)(=O)c2ccc(C)cc2)COC(=O)CC=C[C@@H]1C", "not fulfilled"),
    ("Cc1ccc(F)cc1S(=O)(=O)N[C@@H]1CCN(Cc2ccc(CC(C)C)cc2)C1", "not fulfilled"),
    ("O=C1O[C@@H](c2ccccc2)[C@@H](c2ccccc2)N2[C@@H](c3ccccc3OCCO)[C@]3(C(=O)Nc4ccc(C#CCCO)cc43)[C@@H](C(=O)O)[C@H]12", "not fulfilled"),
    ("O=C1C[C@]2(c3ccc([N+](=O)[O-])cc3)C(=O)N(CCN3CCOCC3)c3cc(CO)ccc3[C@H]2N1CC12CC3CC(CC(C3)C1)C2", "fulfilled"),
    ("[N-]=[N+]=NCc1ccccc1C[C@]1(C(=O)NCc2ccccc2)N=C(c2ccc(OCCCO)cc2)O[C@H]1c1ccccc1N=[N+]=[N-]", "fulfilled"),
    ("O=C1C[C@@H](O)[C@@H](O)[C@@H]2[C@@H]3C(=O)N(c4cccc(Oc5ccccc5)c4)C(=O)[C@@H]3CC[C@@H]12", "fulfilled"),
]
